The reader will find reported protein stability index values listed item by item below.
- procedure_summary: protein stability index of a GFP-peptide fusion (GPS, HEK-293T) (PSI 1-6); higher = more stable;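 further: 24-mer peptide tiles fused after GFP, lentivirally expressed, FACS-sorted into six equal bins by GFP/DsRed ratio, decoded by Illumina sequencing, PSI is the read-weighted mean bin number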
- run_parameters: treatment: DMSO; c terminus: a fixed tail appended
// return just the number, without any unit appended

ordered_residues="SIDLGTAHSAAVTASGDCYTFGSN [NEK8]" data_value=3.79
ordered_residues="DFLAVLSDYPSPDISPPIFRRGEK [SLA]" data_value=2.63
ordered_residues="EGDPGSKQPRKKRGRYRQYNSEIL [LCOR]" data_value=4.64
ordered_residues="ATFEKILESELLRGTQYSSLDSLD [PSD2]" data_value=2.25
ordered_residues="NLSKTQNMERFGEDNLEDDDVEMK [CDC14A]" data_value=5.4
ordered_residues="LKKLAEENPDLQEAYIAKQKRLKS [GDAP1]" data_value=4.38

For record DSNSGCLGDTQFCFRFRQSSGRRV [DENND6A] the listed protein stability index is 3.24

Field protein stability index (entry GGGREPQGLAEKSPLQTIGEEQTQ [WDR41] ) reads 5.31

GET /value?item= SERPLDFLDLERPPTTPQNEEIRA [MFF] &field=protein stability index returns 5.29

// protein stability index value for ERSDLEEDNEREGTENGAIDAVPV [ZC3H15] : 5.5

Entry YSAPPGDPLSTNYSLAPNTPINQN [NFE2L1] , protein stability index reported as 4.48

Looking up LLNPEKYKAKSRSPGSPVGEGTGS [ADD1] , I found its protein stability index recorded as 4.52

----------
- procedure_summary: protein stability index of a GFP-peptide fusion (GPS, HEK-293T) (PSI 1-6); higher = more stable
- run_parameters: treatment: DMSO; c terminus: a fixed tail appended
Output 1.0 for protein stability index not less than 3; output 0.0 otherwise.

These recorded examples may help you get a feel for the data.
ordered_residues="ILTLPEMMRMFSENLAHHLEIDSG [TRIM15]" qualitative_label=0.0
ordered_residues="TMEYSMVGRTVLDMLIREVVEKRL [RSPH3]" qualitative_label=0.0
ordered_residues="KDRASPADLRTNHTLNNLVEKLLR [TRIM35]" qualitative_label=0.0
ordered_residues="RNVLELNDVRQSANYTCVAMSTLG [PTPRD]" qualitative_label=0.0
ordered_residues="VISQLEQGTELWVAERGTTQGCHP [ZNF8]" qualitative_label=1.0

Could you verify whether the entry SVPFSFDPNTAAGWLSVSDDLTSV [TRIM35] shows protein stability index of no less than 3?
1.0

Threshold query (protein stability index >= 3) on ENIDSLYNVNLSKGRAALSATVPR [SCNN1D]
1.0

# check: protein stability index of LFVNSHPGIDRPGMLCSFRIPGAW [DCAF4] is greater than or equal to 3
0.0

Does protein stability index meet or surpass 3 for LQNFSSSWSDGMAFCALVHSFFPD [SMTNL2] ?
0.0

Check this sequence for protein stability index at or above 3: FLIGAYAVIYLKKTPEEAYRALLS [CDC14A]
0.0

Quick check: does LTHLVKLDLSKNKLQQLPADFGRL [LRRC59] have protein stability index greater than or equal to 3?
0.0

Hello, I need to know if LLKHSNIVRLHDSISEEGFHYLVF [CAMK2B] has measured protein stability index not below 3. Thanks!
0.0

----------
- procedure_summary: protein stability index of a GFP-peptide fusion (GPS, HEK-293T) (PSI 1-6); higher = more stable
- run_parameters: treatment: DMSO; c terminus: a fixed tail appended
Reported protein stability index is given for each of the following sequences.
Just the number, please, no unit attached.

Consider the reported protein stability index for these sequences:
ordered_residues="EYLLSFPAGKTPVPAGEEEGELGE [VPS39]" data_value=5.25
ordered_residues="NQHGIILKYIGMAKREINKLLKQK [ARL6IP1]" data_value=1.93

Documented protein stability index of KTKYILLMDIVPADDHRYKFADNK [TBX5] : 2.08

Measured protein stability index, SCFLINTADRIIRVYDGREILTCG [RBBP5] : 1.91

Sure, the documented protein stability index for DPYLSYRWKRRRSYSREHEGRLRY [CLK3] is 3.54

Field protein stability index (entry VCTVQFLISKGANVNRTTANNDHT [ANKRD17] ) reads 2.28

# protein stability index of KSQSLRSVRRSESWARPRPDEERP [RASAL3] = 4.89

Please fill in: protein stability index reported for PDPSHSPSDKVGRADAHLGSSSVA [TOR1AIP2] = 4.98

Lookup result for CRANRNCPIDQHHRNQCQYCRLKK [NR2F2] ; measured protein stability index: 4.2

The sequence identified as EQLGSGDGIPQVYYFGPCGKYNAM [CSNK1G3] registered its protein stability index at 2.34

// field: protein stability index; key: AKALNRPPTYPTKYFGCELGAQTQ [EIF5] ; value = 2.71

sequence PYYLRSFLVVLKTVLENEDDMLLF [FAN1] , protein stability index observed: 2.27

protein stability index recorded for this sequence, EALGFSWHDTCFVCAICQINLEGK [PDLIM7] , is 2.48

Kindly note the recorded protein stability index for PAGERRIYRHRIPSTICFGQGAAR [ZNF511] , which is 2.89

The measured protein stability index associated with KIIQLGLTFMNEQGEYPPGTSTWQ [CNOT7] reads 2.23

Record SPSPMSHGHYSMHCLHSAGHSQPD [DLX1] . Reported protein stability index: 3.82

protein stability index in this record for TQNHAASALPTGSPKRGTAPGDLS [FBF1] : 5.08

Per the record, RPVILDPADPTGNLGGGDPKGWRQ [OAS1] has protein stability index of 4.28

// protein stability index value for AIIISTIVLDRALHIPMYFFLAIL [OR10K2] : 3.04

Looking up APRGKNGFTPLHMAVDKDTTNVGR [FEM1A] , I found its protein stability index recorded as 4.37

The recorded protein stability index for entry PLNPKPHKKKSPGEKPHRCPQCGK [ZNF449] equals 4.24

Reported protein stability index for LARPECLFLLLGHGASPGLRDGGG [ANKRD9] was 2.29

Looking up IERGASLEEVNDEGYTPLMEAARE [ANKRD17] , I see its protein stability index listed as 5.34

Lab note: SEAEEALYLIAKRNRKLKCTFSLT [SLC22A15] gave protein stability index of 2.52

----------
- procedure_summary: protein stability index of a GFP-peptide fusion (GPS, HEK-293T) (PSI 1-6); higher = more stable
- run_parameters: treatment: MLN4924 1 uM, 8 h; c terminus: a fixed tail appended
We begin with a simple list: items and their reported protein stability index.
Reply with just the number.

Check out these entries, answers already filled in.
ordered_residues="EKVKACQGQYETIERLRSLSPKIM [TBC1D10A]" data_value=3.23
ordered_residues="FLYSHGVPRTLSPHQYHSVHGVGM [TBX5]" data_value=2
ordered_residues="ELVLCVLVSIRNNRNLQKFSLFGD [FBXO33]" data_value=2.86
ordered_residues="CEDQKQIKKPESFSKQIVLRGKSI [NEUROD6]" data_value=4.61
ordered_residues="PTVHVEVHQRGSSTAKKEDINLSV [TRIP13]" data_value=4.84
ordered_residues="LTSELDPEKEQEIETIKIIETEDQ [MIA2]" data_value=5.46
ordered_residues="YSAPPGDPLSTNYSLAPNTPINQN [NFE2L1]" data_value=4.54
ordered_residues="LLLSFWKETDPLTFNFISSLKAIC [PLD5]" data_value=2.44
ordered_residues="VRGLLASLFAFKSFRENWQRAWVR [C2CD2L]" data_value=2.61
ordered_residues="RLQHICELFIITQLQSMPSRELAS [RHOBTB3]" data_value=3.33

For record LCDKLPPATALGTASYPSDGCGAD [NOL4L] the listed protein stability index is 4.92

Data point: KEHPDVQLLEDAILIIQGVLSDIN [NET1] ; protein stability index = 2.47

Measured protein stability index of RNRLAATKCRKRKLERIARLEDKV [JUNB] : 3.86

----------
protein stability index reference
- procedure_summary: protein stability index of a GFP-peptide fusion (GPS, HEK-293T) (PSI 1-6); higher = more stable
- run_parameters: treatment: MLN4924 1 uM, 8 h; c terminus: a fixed tail appended
Please give only the number in your answer, with no unit.

ordered_residues="HMEDPRRAGKMLMTLPLLRQTSTK [ESRRG]" data_value=3.7
ordered_residues="GCGYGCQLHHVVYCFMIAYGTQRT [FUT8]" data_value=3.06
ordered_residues="KIIQLGLTFMNEQGEYPPGTSTWQ [CNOT7]" data_value=2.19

Lookup result for KKKSILMKQLQQQQHSDKTSLQGL [ISL2] ; measured protein stability index: 4.04

Value of measured protein stability index for the entry FQIYDKEASGYVDRDMFFKICESL [EFHC1] : 2.5

Summary for this sequence, LLLLLFWGVVSHSFPATLETQEQD [MMP1] : protein stability index is 2.76
